Ref: ChEMBL document CHEMBL4043300

Observed Ki for Procathepsin L (Homo sapiens), reported per entry below.

molSmiles	testTarget	Ki
N#CC1(NC(=O)[C@H](Cc2ccc(Cl)c(Cl)c2)NC(=O)c2cnn(-c3ccc(F)cc3)n2)CC1	Procathepsin L (Homo sapiens)	0.131 µM
N#CC1(NC(=O)[C@H](Cc2ccc(OC(F)(F)F)c(Cl)c2)NC(=O)c2cnn(C3CC(F)(F)C3)n2)CC1	Procathepsin L (Homo sapiens)	0.076 µM
N#CC1(NC(=O)[C@H](Cc2ccc(OC(F)(F)F)c(Cl)c2)NC(=O)c2cnn(C3CCOCC3)n2)CC1	Procathepsin L (Homo sapiens)	0.112 µM
CC(C)(C)n1ncc(C(=O)N[C@@H](Cc2ccc(OC(F)(F)F)c(Cl)c2)C(=O)NC2(C#N)CC2)n1	Procathepsin L (Homo sapiens)	0.008 µM
N#CC1(NC(=O)[C@H](Cc2ccc(OC(F)(F)F)c(Cl)c2)NC(=O)c2cnn(-c3cccnc3)n2)CC1	Procathepsin L (Homo sapiens)	0.353 µM
N#CC1(NC(=O)[C@H](Cc2ccc(OCC3CC3)c(Cl)c2)NC(=O)c2cnn(-c3ccc(F)cc3)n2)CC1	Procathepsin L (Homo sapiens)	0.181 to 0.314 µM
N#CC1(NC(=O)[C@H](Cc2ccc(OC(F)(F)F)c(Cl)c2)NC(=O)c2cnn(-c3ccc(F)cc3)n2)CC1	Procathepsin L (Homo sapiens)	0.266 µM
N#CC1(NC(=O)[C@H](Cc2ccc(OC(F)(F)F)c(Cl)c2)NC(=O)c2cnn(C3CCCCC3)n2)CC1	Procathepsin L (Homo sapiens)	0.082 µM
